Test system: Saccharomyces cerevisiae;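 also: PSI is a weighted mean of sequencing reads over stability bins, variants kept only with over 10 reads, mCherry proximal and sfGFP distal, peptide attached via GGGS linker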
assay_overview: protein stability index of tFT-peptide fusion (C-terminal peptide) (PSI (0-1 scale)); higher = more stable (slower turnover)
measurement_setup: genetic background: cdc53-1; temperature: 37 C
Overview of reported protein stability index across a group of sequences:
measurement_label: protein stability index

[
  {
    "construct_sequence": "FFFPFLCIAVSL",
    "measurement_label": "protein stability index",
    "test_value": 0.474
  },
  {
    "construct_sequence": "PATPPLRFPPSA",
    "measurement_label": "protein stability index",
    "test_value": 0.735
  },
  {
    "construct_sequence": "CPVSFSFCLKVL",
    "measurement_label": "protein stability index",
    "test_value": 0.431
  },
  {
    "construct_sequence": "SPLLPPPLLFLS",
    "measurement_label": "protein stability index",
    "test_value": 0.731
  },
  {
    "construct_sequence": "FGVLLLFLFFLP",
    "measurement_label": "protein stability index",
    "test_value": 0.444
  },
  {
    "construct_sequence": "FTEFWFFKQMSV",
    "measurement_label": "protein stability index",
    "test_value": 0.761
  },
  {
    "construct_sequence": "WVYVFVSLFFVV",
    "measurement_label": "protein stability index",
    "test_value": 0.255
  }
]
